# procedure_text: Cmax in Sprague-Dawley rat at 1 mg/kg, iv by LCMS analysis
# Assay type: ADME, organism-based
# Set-up: route intravenous, dose 1 mg/kg
# test_parameters: in vivo
readout_name: Cmax (µg/mL)
Give the value, in units of µg/mL, as a plain number.

The compound Cl.N#Cc1ccc(Nc2nccc(Nc3c(F)cc(-c4ccncc4)cc3F)n2)cc1 showed Cmax equal to 1.37

###

# procedure_text: Aqueous solubility of compound in PBS at pH 7.4 by HPLC-UV analysis
# test_parameters: buffer
readout_name: solubility

Reported solubility of Cc1cc(/C=C/C#N)cc(C)c1Nc1ccnc(Nc2ccc(C#N)cc2)n1 : < 1 µg/mL

###

# procedure_text: Stability in mouse liver microsome assessed as half life at 1 uM in presence of NADPH by LC/MS/MS analysis
# Assay type: ADME
# test_parameters: liver microsomes
readout_name: half-life at 1 µM (min)
The reply should contain only the number, in min.

Entry Cl.N#Cc1ccc(Nc2nccc(Nc3c(F)cc(-c4ccncc4)cc3F)n2)cc1 , half-life at 1 µM reported as 27

###

# procedure_text: AUC (all) in Sprague-Dawley rat at 1 mg/kg, iv by LCMS analysis
# Assay type: ADME, organism-based
# Set-up: dose 1 mg/kg
# test_parameters: in vivo
readout_name: AUC (ng·h/mL)
Only the number, expressed in ng·h/mL, is required.

So for Cl.N#Cc1ccc(Nc2nccc(Nc3c(F)cc(-c4ccncc4)cc3F)n2)cc1 , the logged AUC turned out to be 526

###

# procedure_text: MRT (infinity) in Sprague-Dawley rat at 1 mg/kg, iv by LCMS analysis
# Assay type: ADME, organism-based
# test_parameters: in vivo
readout_name: MRT inf (min)
Provide the reading as a plain figure in min.

Data point: Cl.N#Cc1ccc(Nc2nccc(Nc3c(F)cc(-c4ccncc4)cc3F)n2)cc1 ; MRT inf = 50.4

###

# procedure_text: Aqueous solubility of compound in PBS at pH 7 by HPLC-UV analysis
# test_parameters: PBS
readout_name: solubility (µg/mL)
API: value field is a number in µg/mL; no unit string.

Record Cl.N#Cc1ccc(Nc2nccc(Nc3c(F)cc(-c4ccc(C#N)cc4)cc3F)n2)cc1 . Reported solubility: 5.6

###

Listed next: entries and their corresponding log10 of CC50.
# procedure_text: Cytotoxicity against mock infected human MT4 cells by MTT assay
Lab note - CC50 converted to log10 from values in µM.

Past entries and their recorded results:
N#Cc1ccc(Nc2nccc(Nc3c(F)cc(-c4ccncc4F)cc3F)n2)cc1    0.52
Cc1cc(-c2cc(F)c(Nc3ccnc(Nc4ccc(C#N)cc4)n3)c(F)c2)cc(C)n1    0.08
N#Cc1ccc(Nc2nccc(Nc3c(F)cc(-c4ccnc(F)c4)cc3F)n2)cc1    0.70

Lab book: log10 of CC50 of Cc1cc(-c2ccc(C#N)cc2)cc(C)c1Nc1ccnc(Nc2ccc(C#N)cc2)n1 noted as 0.32

Entry N#Cc1ccc(Nc2nccc(Nc3c(F)cc(-c4csc5ccccc45)cc3F)n2)cc1 — recorded log10 of CC50 = 1.20

response.value for N#Cc1ccc(Nc2nccc(Nc3c(F)cc(-c4ccnc(Cl)c4)cc3F)n2)cc1 (field: log10 of CC50) = 0.62

###

# procedure_text: Selectivity index, ratio of CC50 for mock infected human MT4 cells to IC50 for HIV1 IIIB infected human MT4 cells
readout_name: selectivity ratio
Lab note: jot the number down without any unit.

N#Cc1ccc(Nc2nccc(Nc3c(F)cc(-c4cc(F)nc(F)c4)cc3F)n2)cc1    1970

Note to self: selectivity ratio recorded for Cc1cc(-c2ccc(C#N)cc2)cc(C)c1Nc1ccnc(Nc2ccc(C#N)cc2)n1 was 2080

Lab note: N#Cc1ccc(Nc2nccc(Nc3c(F)cc(-c4ccoc4)cc3F)n2)cc1 gave selectivity ratio of 3290

Summary for this compound, COc1cc(-c2cc(F)c(Nc3ccnc(Nc4ccc(C#N)cc4)n3)c(F)c2)ccn1 : selectivity ratio is 501

Looking up N#Cc1ccc(Nc2nccc(Nc3c(F)cc(-c4ccnc(F)c4)cc3F)n2)cc1 , I see its selectivity ratio listed as 1310

Value of measured selectivity ratio for the entry N#Cc1ccc(Nc2nccc(Nc3c(F)cc(-c4ccnc(Cl)c4Cl)cc3F)n2)cc1 : 3670

Record summary for N#Cc1ccc(Nc2nccc(Nc3c(F)cc(-c4cc(Cl)nc(Cl)c4)cc3F)n2)cc1 : reported selectivity ratio = 97

Reported selectivity ratio of N#Cc1ccc(Nc2nccc(Nc3c(F)cc(-c4cccnc4)cc3F)n2)cc1 : 32700

###

# tgt: Human immunodeficiency virus type 1 reverse transcriptase (Human immunodeficiency virus 1)
# procedure_text: Inhibition of recombinant wild-type HIV1 p66/p51 reverse transcriptase assessed as inhibition of [3H][…] incorporation using poly (rA) as templates incubated for 40 mins by spectrofluorometer
Below: a set of entries, each annotated with reported IC50.
Give the value in nM but do not write nM after it.

N#Cc1ccc(Nc2nccc(Nc3c(F)cc(-c4ccnc(C#N)c4F)cc3F)n2)cc1    11
N#Cc1ccc(Nc2nccc(Nc3c(F)cc(-c4ccnc(F)c4F)cc3F)n2)cc1    8.3
N#Cc1ccc(Nc2nccc(Nc3c(F)cc(-c4ccnc(Cl)c4)cc3F)n2)cc1    14
Cc1cc(-c2cc(F)c(Nc3ccnc(Nc4ccc(C#N)cc4)n3)c(F)c2)ccn1    29
N#Cc1ccc(Nc2nccc(Nc3c(F)cc(-c4ccncc4)cc3F)n2)cc1    7.4

The compound identified as N#Cc1ccc(Nc2nccc(Nc3c(F)cc(-c4ccnc(-c5ccnc(Cl)c5)c4)cc3F)n2)cc1 registered its IC50 at 110

Input N#Cc1ccc(Nc2nccc(Nc3c(F)cc(-c4coc5ccccc45)cc3F)n2)cc1 . Output IC50: 28

The compound listed as N#Cc1ccc(Nc2nccc(Nc3c(F)cc(-c4cn[nH]c4)cc3F)n2)cc1 shows IC50 equal to 43

###

# procedure_text: in vitro
# test_parameters: rat, microsomes
readout_name: half-life at 1 µM

Lab note: measured half-life at 1 µM of N#Cc1ccc(Nc2nccc(Nc3c(F)cc(-c4ccc(C#N)cc4)cc3F)n2)cc1 was 44.3 min

###

# procedure_text: in vitro
# test_parameters: rat, microsomes
readout_name: microsomal CLint at 1 µM (µL/min/mg)
Only the number, expressed in µL/min/mg, is required.

Reported microsomal CLint at 1 µM ( N#Cc1ccc(Nc2nccc(Nc3c(F)cc(-c4ccc(C#N)cc4)cc3F)n2)cc1 ) = 15.7

###

# procedure_text: Intrinsic clearance in mouse liver microsome at 1 uM in presence of NADPH by LC/MS/MS analysis
# Assay type: ADME
# test_parameters: liver microsomes, read-out: CLH
readout_name: microsomal CLint at 1 µM (µL/min/mg)
# unit: µL/min/mg | format: bare number

Field microsomal CLint at 1 µM (entry Cl.N#Cc1ccc(Nc2nccc(Nc3c(F)cc(-c4ccncc4)cc3F)n2)cc1 ) reads 52

###

# procedure_text: Tmax in Sprague-Dawley rat at 5 mg/kg, po by LCMS analysis
# Format: ADME, organism-based
# test_parameters: in vivo
readout_name: Tmax (min)
Reply numerically in min, unit not repeated.

For this compound ( Cl.N#Cc1ccc(Nc2nccc(Nc3c(F)cc(-c4ccncc4)cc3F)n2)cc1 ), measured Tmax is 34.8

###

# Test system: Human immunodeficiency virus 1
# procedure_text: Anti-viral activity against HIV1 harboring RT K103N mutant infected […] cells assessed as protection against virus-induced cytopathic effect by MTT assay
# Assay type: functional, organism-based
# test_parameters: Human immunodeficiency virus 1, MT4
readout_name: pEC50
// pEC50 is dimensionless: -log10 of concentration (M)

Some solved cases for reference:
N#Cc1ccc(Nc2nccc(Nc3c(F)cc(-c4ccco4)cc3F)n2)cc1    7.15
N#Cc1ccc(Nc2nccc(Nc3c(F)cc(-c4ccnc(Cl)c4)cc3F)n2)cc1    7.00
COc1cc(-c2cc(F)c(Nc3ccnc(Nc4ccc(C#N)cc4)n3)c(F)c2)ccn1    6.62
N#Cc1ccc(Nc2nccc(Nc3c(F)cc(-c4ccncc4)cc3F)n2)cc1    8.10

Here's the next entry for you.
compound N#Cc1ccc(Nc2nccc(Nc3c(F)cc(-c4ccnc(F)c4F)cc3F)n2)cc1 , pEC50 observed: 7.94

###

# procedure_text: MRT (infinity) in Sprague-Dawley rat at 5 mg/kg, po by LCMS analysis
# Type: ADME, organism-based
# test_parameters: in vivo
readout_name: MRT inf

The molecule listed as Cl.N#Cc1ccc(Nc2nccc(Nc3c(F)cc(-c4ccncc4)cc3F)n2)cc1 shows MRT inf equal to 1.68 h

###

# procedure_text: Clearance in Sprague-Dawley rat at 1 mg/kg, iv
# Format: ADME, organism-based
# test_parameters: in vivo
readout_name: clearance (mL/min/kg)
Give just the number in mL/min/kg; leave the unit off.

Entry under test: Cl.N#Cc1ccc(Nc2nccc(Nc3c(F)cc(-c4ccncc4)cc3F)n2)cc1 . Its clearance was 32

Numbers sourced from ChEMBL document CHEMBL5032511.
